Biological target: KRAS^G12D protein (Homo sapiens, UniProt P01116, G12D)
Construct: host or cells: Aspc-1 (AsPC-1) cells
Sequence (P01116 1-188 isoform P01116-2 G12D): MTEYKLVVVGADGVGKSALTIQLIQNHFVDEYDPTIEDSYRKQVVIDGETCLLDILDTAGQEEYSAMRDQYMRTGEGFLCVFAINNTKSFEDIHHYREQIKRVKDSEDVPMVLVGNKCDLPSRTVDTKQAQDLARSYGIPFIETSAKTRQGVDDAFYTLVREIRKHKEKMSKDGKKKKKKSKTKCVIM
Assay: Protein degradation study (western blot) in Aspc-1 cells
Format: cell-based
Conditions: ASPC1, 24 h, Aspc-1 cells treated with 0.1 μM compound, 24 hours; read-out: Rate of protein degradation
Description: Aspc-1 (Cobioer, CBP60546) cells in exponential growth phase were inoculated on a 6-well cell culture plate (Corning, 3516) at density of 1E6/well; and cells in the plate were cultured in 37° C. incubator containing 5%-carbon dioxide. […] The supernatant was transferred into a new 1.5-mL centrifuge tube, and protein concentration was measured with BCA protein detection kit (Thermo Fisher, 23225). G12D protein level was assessed by western blot. […]
METRIC NAME: inhibition at 0.1 µM

Record C#Cc1c(F)ccc2cc(O)cc(-c3ncc4c(N5CC6CCC(C5)N6)nc(OCCCN5CCN(CCC(=O)N6CCC(c7ccc8c(C9CCC(=O)NC9=O)nn(C)c8c7)CC6)CC5)nc4c3F)c12 (stereo not drawn) [Compound 74] . Reported inhibition at 0.1 µM: 31 to 60%

Item: C#Cc1c(F)ccc2cc(O)cc(-c3ncc4c(N5CC6CCC(C5)N6)nc(N5CC(N6CCN(C(=O)CN7CCC(c8ccc9c(C%10CCC(=O)NC%10=O)nn(C)c9c8)CC7)CC6)C5)nc4c3F)c12 (stereo not drawn) [Compound 120] | inhibition at 0.1 µM: 11 to 30%

Reported inhibition at 0.1 µM ( C#Cc1c(F)ccc2cc(O)cc(-c3ncc4c(N5CC6CCC(C5)N6)nc(OC5CCN(CC(=O)N6CCC(c7ccc8c(C9CCC(=O)NC9=O)nn(C)c8c7)CC6)CC5)nc4c3F)c12 (stereo not drawn) [Compound 69] ) = > 60%

---

Catalogue of inhibition at 0.005 µM values
biological target: KRAS^G12D protein (Homo sapiens, UniProt P01116, G12D); construct: host or cells: Aspc-1 (AsPC-1) cells; test: Protein degradation study (western blot) in Aspc-1 cells; format: cell-based; settings: ASPC1, 24 h, Aspc-1 cells treated with 0.005 μM compound, 24 hours; read-out: Rate of degradation

C#Cc1c(F)ccc2cc(O)cc(-c3ncc4c(N5CC6CCC(C5)N6)nc(OCC5(CN6CCC7(CC6)CC(N6CCC(c8cc9c(cc8F)c(N8CCC(=O)NC8=O)nn9C)CC6)C7)CC5)nc4c3F)c12 [Compound 2a] | > 60%
C#Cc1c(F)ccc2cc(O)cc(-c3ncc4c(N5CC6CCC(C5)N6)nc(OCC5(CN6CCC7(CCC(CN8CCC(c9ccc%10c(C%11CCC(=O)NC%11=O)nn(C)c%10c9)CC8)CC7)CC6)CC5)nc4c3F)c12 (stereo not drawn) [Compound 26a] | > 60%

Proceeding to the next compound to report its inhibition at 0.005 µM.
Entry C#Cc1c(F)ccc2cc(O)cc(-c3ncc4c(N5CC6CCC(C5)N6)nc(OCC5(CN6CC7(CC(CN8CCC(c9ccc%10c(C%11CCC(=O)NC%11=O)nn(C)c%10c9)CC8)C7)C6)CC5)nc4c3F)c12 (stereo not drawn) [Compound 25a] ; assay system KRAS^G12D protein (Homo sapiens, UniProt P01116, G12D); inhibition at 0.005 µM recorded at 31 to 60%

---

target: KRAS^G12D protein (Homo sapiens, UniProt P01116, G12D); construct: host or cells: Aspc-1 (AsPC-1) cells; assay: Protein degradation study (western blot) in Aspc-1 cells; type: cell-based; conditions: Aspc-1 cells; half-maximum degradation concentration; read-out: DC50 of compounds induced Ras G12D protein degradation
METRIC NAME: DC50

C#Cc1c(F)ccc2cc(O)cc(-c3ncc4c(N5CC6CCC(C5)N6)nc(OC5CCN(CCCCCCCCCCC(=O)N[C@H](C(=O)N6C[C@H](O)C[C@H]6C(=O)NCc6ccc(-c7scnc7C)cc6)C(C)(C)C)CC5)nc4c3F)c12 | 51 to 100 nM

Sample `C#Cc1c(F)ccc2cc(O)cc(-c3ncc4c(N5CC6CCC(C5)N6)nc(OCC5(CN6CCC7(CC6)CC(N6CCC(c8cc9c(cc8F)c(N8CCC(=O)NC8=O)nn9C)CC6)C7)CC5)nc4c3F)c12` ; DC50 observed: < 10 nM

Reported DC50 of C#Cc1c(F)ccc2cc(O)cc(-c3ncc4c(N5CC6CCC(C5)N6)nc(OCC5(CN6CCC7(CC6)CC(N6CCC(c8ccc(NC9%10CC(C9)C(=O)NC%10=O)cc8F)CC6)C7)CC5)nc4c3F)c12 [Compound 36a] : < 10 nM

// DC50 value for C#Cc1c(F)ccc2cc(O)cc(-c3ncc4c(N5CC6CCC(C5)N6)nc(OCC5(CN6CCC7(CC6)CC(C(=O)N6CCC(c8ccc9c(C%10CCC(=O)NC%10=O)nn(C)c9c8)CC6)C7)CC5)nc4c3F)c12 (stereo not drawn) [Compound 28a] : < 10 nM

Data point: C#Cc1c(F)ccc2cc(O)cc(-c3ccc4c(N5CC6CCC(C5)N6)nc(OCC5(CN6CCC7(CC6)CC(N6CCC(c8ccc9c(C%10CCC(=O)NC%10=O)nn(C)c9c8)CC6)C7)CC5)nc4c3F)c12 (stereo not drawn) [Compound 23a] ; DC50 = < 10 nM

# molecule C#Cc1c(F)ccc2cc(O)cc(-c3ncc4c(N5CC6CCC(C5)N6)nc(OCC5(CN6CCC7(CCC(CN8CCC(c9ccc%10c(C%11CCC(=O)NC%11=O)nn(C)c%10c9)CC8)CC7)CC6)CC5)nc4c3F)c12 (stereo not drawn) [Compound 26a] ; its DC50 = < 10 nM

// sample C#Cc1c(F)ccc2cc(O)cc(-c3ncc4c(N5CC6CCC(C5)N6)nc(OCC5(CN6CCC7(CC6)CC(N6CCC(c8cc9c(cc8F)c(N8CCC(=O)NC8=O)nn9C)C(F)(F)C6)C7)CC5)nc4c3F)c12 (stereo not drawn) [Compound 37a] , its DC50 was < 10 nM

DC50 reported for this molecule C#Cc1c(F)ccc2cc(O)cc(-c3ncc4c(N5CC6CCC(C5)N6)nc(OCC5(CN6CC7(CCC(N8CCC(c9ccc%10c(C%11CCC(=O)NC%11=O)nn(C)c%10c9)CC8)CC7)C6)CC5)nc4c3F)c12 (stereo not drawn) [Compound 31a] : < 10 nM

get_value(item= C#Cc1c(F)ccc2cc(O)cc(-c3ncc4c(N5CC6CCC(C5)N6)nc(OCCCN5CCN(C(=O)CN6CCC(c7ccc8c(C9CCC(=O)NC9=O)nn(C)c8c7)CC6)CC5)nc4c3F)c12 (stereo not drawn) , readout=DC50) returns 11 to 50 nM

Value of DC50 reported for the molecule C#Cc1c(F)ccc2cc(O)cc(-c3ncc4c(N5CC6CCC(C5)N6)nc(OCC5(CN6CC7(CCC(CN8CCC(c9ccc%10c(C%11CCC(=O)NC%11=O)nn(C)c%10c9)CC8)CC7)C6)CC5)nc4c3F)c12 (stereo not drawn) [Compound 32a] is < 10 nM

The reported DC50 of the molecule Cn1nc(C2CCC(=O)NC2=O)c2ccc(C3CCN(C4CC5(CCN(CC6(COc7nc(N8CC9CCC(C8)N9)c8cnc(-c9cc(N)cc(Cl)c9C(F)(F)F)c(F)c8n7)CC6)CC5)C4)CC3)cc21 (stereo not drawn) [Compound 17a] was < 10 nM

Measured DC50, Nc1cc(Cl)c(C(F)(F)F)c(-c2ncc3c(N4CC5CCC(C4)N5)nc(OCC4(CN5CCC6(CC5)CC(N5CCC(c7ccc8c9c(cccc79)C(=O)N8C7CCC(=O)NC7=O)CC5)C6)CC4)nc3c2F)c1 (stereo not drawn) [Compound 13a] : < 10 nM

The recorded DC50 for entry C#Cc1c(F)ccc2cc(O)cc(-c3ncc4c(N5CC6CCC(C5)N6)nc(OCC5(CN6CCC7(CC6)CC(c6cc8c(cc6F)c(N6CCC(=O)NC6=O)nn8C)C7)CC5)nc4c3F)c12 [Compound 39a] equals < 10 nM

---

Entries and their measured inhibition at 0.005 µM follow.
target: KRAS^G12D protein (Homo sapiens, UniProt P01116, G12D); construct: host or cells: Aspc-1 (AsPC-1) cells; assay: Protein degradation study (western blot) in Aspc-1 cells; assay type: cell-based; settings: ASPC1, 24 h, Aspc-1 cells treated with 0.005 μM compound, 24 hours; read-out: Rate of degradation

Answered cases to consult:
C#Cc1c(F)ccc2cc(O)cc(-c3ncc4c(N5CC6CCC(C5)N6)nc(OCC5(CN6CCC7(CC6)CC(CN6CCC(c8ccc9c(C%10CCC(=O)NC%10=O)nn(C)c9c8)CC6)C7)CC5)nc4c3F)c12 (centres unmarked) [Compound 29a] | > 60%
Cc1ccc2[nH]ncc2c1-c1ncc2c(N3CC4CCC(C3)N4)nc(OCC3(CN4CCC5(CC4)CC(N4CCC(c6ccc7c8c(cccc68)C(=O)N7C6CCC(=O)NC6=O)CC4)C5)CC3)nc2c1F (centres unmarked) [Compound 18a] | 11 to 30%

For this molecule ( C#Cc1c(F)ccc2cc(O)cc(-c3ncc4c(N5CC6CCC(C5)N6)nc(OCC5(CN6CCC7(CC6)CC(C(=O)N6CCC(c8ccc9c(C%10CCC(=O)NC%10=O)nn(C)c9c8)CC6)C7)CC5)nc4c3F)c12 (centres unmarked) [Compound 28a] ), measured inhibition at 0.005 µM is > 60%

The reported value for C#Cc1c(F)ccc2cc(O)cc(-c3ncc4c(N5CC6CCC(C5)N6)nc(OCC5(CN6CCC7(CC6)CC(N6CCC(c8cc9c(cc8F)c(C8CCC(=O)NC8=O)nn9C)CC6)C7)CC5)nc4c3F)c12 (centres unmarked) [Compound 41a] in terms of inhibition at 0.005 µM is > 60%

response.value for Nc1cc(Cl)c(C(F)(F)F)c(-c2ncc3c(N4CC5CCC(C4)N5)nc(OCC4(CN5CCC6(CC5)CC(N5CCC(c7ccc8c9c(cccc79)C(=O)N8C7CCC(=O)NC7=O)CC5)C6)CC4)nc3c2F)c1 (centres unmarked) [Compound 13a] (field: inhibition at 0.005 µM) = > 60%
